- assayed system: UniProt P30518
- Sequence (P30518 whole entry): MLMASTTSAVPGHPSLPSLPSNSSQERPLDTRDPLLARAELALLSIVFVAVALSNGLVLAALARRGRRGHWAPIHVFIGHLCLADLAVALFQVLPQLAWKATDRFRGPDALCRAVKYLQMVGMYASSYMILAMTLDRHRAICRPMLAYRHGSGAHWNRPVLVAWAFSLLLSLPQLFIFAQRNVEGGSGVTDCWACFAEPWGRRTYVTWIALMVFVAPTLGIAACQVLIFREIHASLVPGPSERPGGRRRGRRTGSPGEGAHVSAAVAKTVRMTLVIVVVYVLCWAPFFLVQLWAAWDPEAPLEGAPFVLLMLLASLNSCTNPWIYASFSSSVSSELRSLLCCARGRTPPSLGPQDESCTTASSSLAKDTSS
- measurement description: Receptor binding study, [3H]AVP displacement on CHO cell membranes, human V2
- test settings: [3H]AVP displacement, CHO cell membrane, 25° C., one hour; read-out: Human V2 Ki
test readout: pKi
Keep it numeric: pKi is minus log10 of the concentration in mol/L.

**Q:** Retrieve pKi measured for C[C@H]1CCN(C(=O)c2ccc(-c3ccc4[nH]ccc4c3)c(OCCCN3CCC[C@H]3C(N)=O)c2)c2ccccc2N1 and print it.
**A:** 8.52

**Q:** Kindly indicate its recorded pKi. Item: CCCN1CCN(CCCOc2cc(C(=O)N3CC[C@H](C)Nc4ccccc43)ccc2-c2ccc3[nH]ccc3c2)CC1
**A:** 8.30

**Q:** Provide pKi value for the following molecule: C[C@@H]1CN(CCCOc2cc(C(=O)N3CC[C@H](C)Nc4ccccc43)ccc2-c2ccc3[nH]ccc3c2)C[C@H](C)O1
**A:** 8.31

**Q:** Identify the reported pKi for the following entry. CCC1CCN(C(=O)c2ccc(-c3ccc4[nH]ccc4c3)c(NC(C)=O)c2)c2ccccc2N1 (stereo not shown)
**A:** 7.82

---

- assayed system: human vasopressin V1a receptor (Homo sapiens, UniProt P37288)
- Sequence (P37288 whole entry): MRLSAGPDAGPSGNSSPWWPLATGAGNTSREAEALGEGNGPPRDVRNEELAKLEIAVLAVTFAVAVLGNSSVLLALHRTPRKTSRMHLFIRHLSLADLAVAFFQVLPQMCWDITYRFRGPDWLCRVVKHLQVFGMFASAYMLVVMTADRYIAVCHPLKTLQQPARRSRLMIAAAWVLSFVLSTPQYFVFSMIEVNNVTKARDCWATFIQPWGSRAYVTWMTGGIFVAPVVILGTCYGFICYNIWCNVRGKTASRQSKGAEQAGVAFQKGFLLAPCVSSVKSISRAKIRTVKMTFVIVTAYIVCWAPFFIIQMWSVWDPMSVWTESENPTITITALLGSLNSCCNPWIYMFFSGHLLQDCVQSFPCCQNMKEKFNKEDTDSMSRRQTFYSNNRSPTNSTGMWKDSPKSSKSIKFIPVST
- measurement description: Receptor binding study, [3H]AVP displacement on CHO cell membranes, human V1a
- test settings: [3H]AVP displacement, CHO cell membrane, 25° C., one hour; read-out: Human V1a Ki
test readout: pKi
Field pKi (float): negative decimal logarithm of the concentration in molar.

**Q:** Please give the documented pKi of CCC1CCN(C(=O)c2ccc(-c3ccc4[nH]ccc4c3)c(NC(C)=O)c2)c2ccccc2N1 (stereo not shown)
**A:** 9.80

**Q:** State, in one line, measured pKi of CC1CCN(C(=O)c2ccc(-c3ccc4[nH]ccc4c3)c(OCCCCCCN)c2)c2ccccc2N1 (stereo not shown)
**A:** 9.66

**Q:** Identify measured pKi associated with CCN1CCC(OC(=O)c2cc(C(=O)N3CC[C@H](C)Nc4ccccc43)ccc2-c2ccc3[nH]ccc3c2)C1 (stereo partly shown)
**A:** 9.92

**Q:** Name the recorded pKi of the item CCCN1CCN(CCOc2cc(C(=O)N3CC[C@H](C)Nc4ccccc43)ccc2-c2ccc(NCC)cc2)CC1 in your answer.
**A:** 9.70

---

- assayed system: human vasopressin V1a receptor (Homo sapiens, UniProt P37288)
- measurement description: Receptor binding study, [3H]AVP displacement on CHO cell membranes, human V1a
- test settings: [3H]AVP displacement, CHO cell membrane, 25° C., one hour; read-out: Human V1a Ki
Give measured pKi for each item. Keep answers brief.
Scale explanation: pKi corresponds to minus log10 of a concentration expressed in moles per litre.

**Q:** Return pKi for the following compound: CC1CCN(C(=O)c2ccc(-c3ccc4[nH]ccc4c3)c(OCCCCN)c2)c2ccccc2N1 (stereo not shown)
**A:** 9.64

**Q:** Answer with the recorded pKi for the compound listed here: C[C@H]1CCN(C(=O)c2ccc(-c3ccc4[nH]ccc4c3)c(C(=O)OCCN(C)C)c2)c2ccccc2N1
**A:** 9.96

**Q:** Return the recorded pKi value; entry: C[C@H]1CCN(C(=O)c2ccc(-c3ccc4[nH]ccc4c3)c(OCCCN3CCC(N)CC3)c2)c2ccccc2N1
**A:** 9.35

**Q:** Return pKi (reported value) for this compound: CCCN1CCN(CCCOc2cc(C(=O)N3CC[C@H](C)Nc4ccccc43)ccc2-c2ccc3[nH]ccc3c2)CC1
**A:** 9.59

**Q:** Please look at this compound and report its pKi: C[C@H]1CCN(C(=O)c2ccc(-c3ccc4[nH]ccc4c3)c(OCCCN(C)C(C)(C)C)c2)c2ccccc2N1
**A:** 9.80

**Q:** Look up and state reported pKi for CCCN(C)CCCOC(=O)c1cc(C(=O)N2CC[C@H](C)Nc3ccccc32)ccc1-c1ccc2[nH]ccc2c1
**A:** 9.60

**Q:** Check the records and state pKi for CCCN(C)C1CCN(CCOc2cc(C(=O)N3CC[C@H](C)Nc4ccccc43)ccc2-c2ccc3[nH]ccc3c2)CC1
**A:** 9.60
